In this section, each of the molecules is paired with its reported pEC50.
- Tested Target: human FPR2 (Homo sapiens (Human))
- Sequence (P25090 whole entry): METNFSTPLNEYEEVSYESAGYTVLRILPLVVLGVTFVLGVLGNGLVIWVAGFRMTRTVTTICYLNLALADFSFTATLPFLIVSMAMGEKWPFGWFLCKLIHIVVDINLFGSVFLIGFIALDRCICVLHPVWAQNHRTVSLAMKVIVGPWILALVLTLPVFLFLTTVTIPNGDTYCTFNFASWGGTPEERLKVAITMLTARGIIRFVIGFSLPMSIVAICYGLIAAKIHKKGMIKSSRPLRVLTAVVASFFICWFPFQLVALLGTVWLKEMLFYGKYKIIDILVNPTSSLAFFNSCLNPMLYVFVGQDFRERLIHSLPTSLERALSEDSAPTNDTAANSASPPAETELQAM
- Method Notes: FPR2 cyclic adenosine monophosphate (cAMP) assay
- Assay type: cell-based
- Recorded Conditions: CHO cells overexpressing human FPR2; cAMP assay; read-out: hFPR2 agonist activity EC50 (hFPR2 Assay)
pEC50: −log10 of the molar value.

As a guide, the following entries are already answered.
Prompt: Find the measured pEC50: item CC1(F)CCN(c2ccc(N3CCC[C@@H](NC(=O)Nc4ccc(Cl)cc4)C3=O)cc2)CC1 , target or system human FPR2 (Homo sapiens (Human)).
Completion: ≥ 8.00

Prompt: Lookup: pEC50 / human FPR2 (Homo sapiens (Human)) / O=C(Nc1ccc(C(F)(F)F)cc1)N[C@@H]1CCCN(c2ccc(N3CC[C@H](O)C3)cc2)C1=O
Completion: 7.00 to 8.00

Prompt: Recall the recorded pEC50 for O=C(Nc1ccc(C(F)(F)F)cc1)N[C@@H]1CCCN(c2ccc(N3CCCC3=O)cc2)C1=O with human FPR2 (Homo sapiens (Human)) and state it.
Completion: 7.00 to 8.00

Prompt: Any idea what pEC50 came out for COc1ccc(NC(=O)N[C@@H]2CCCN(c3ccc(N4CCOC[C@H]4C)cc3)C2=O)cc1 on human FPR2 (Homo sapiens (Human))?
Completion: 7.00 to 8.00

Prompt: Provide value of pEC50 for this record tested with human FPR2 (Homo sapiens (Human)): O=C(Nc1ccc(C(F)(F)F)cn1)N[C@@H]1CCCN(c2ccc(N3CC[C@@H](O)C3)cc2)C1=O
Completion: 6.00 to 7.00

Prompt: # returns recorded pEC50 (system: human FPR2 (Homo sapiens (Human))) for C[C@@H]1COCCN1c1ccc(N2CCC[C@@H](NC(=O)Nc3ccc(C(F)(F)F)cn3)C2=O)cc1
Completion: 6.00 to 7.00

Prompt: Lab note: need pEC50 with human FPR2 (Homo sapiens (Human)) for entry COC1CCN(c2ccc(N3CCC[C@@H](NC(=O)Nc4ccc(C(F)(F)F)cc4)C3=O)cc2)CC1 , please look it up.
Completion: ≥ 8.00

Prompt: Observed pEC50 on human FPR2 (Homo sapiens (Human)) for O=C(Nc1ccc(Cl)cc1)N[C@@H]1CCCN(c2ccc(N3CCC4(CCCO4)CC3)cc2)C1=O , please.
Completion: ≥ 8.00

Next:
Prompt: Please tell me: pEC50 of CC(C)[C@@H]1COCCN1c1ccc(N2CCC[C@@H](NC(=O)Nc3ccc(C(F)(F)F)cc3)C2=O)cc1 , system human FPR2 (Homo sapiens (Human))?
Completion: ≥ 8.00

Prompt: Report pEC50 for O=C(Nc1ccc(C(F)(F)F)nc1)N[C@@H]1CCCN(c2ccc(N3[C@@H]4CC[C@H]3COC4)nc2)C1=O tested on human FPR2 (Homo sapiens (Human)).
Completion: 6.00 to 7.00

Prompt: Find pEC50 (human FPR2 (Homo sapiens (Human))) for the entry COCC1COCCN1c1ccc(N2CCC[C@@H](NC(=O)Nc3ccc(C(F)(F)F)cc3)C2=O)cc1 (stereo partly drawn) [Example 13]
Completion: ≥ 8.00

Prompt: What value of pEC50 on human FPR2 (Homo sapiens (Human)) does CC1(O)CCN(c2ccc(N3CCC[C@@H](NC(=O)Nc4ccc(Cl)cc4)C3=O)cc2)C1 (stereo partly drawn) have?
Completion: ≥ 8.00

Prompt: What value of pEC50 on human FPR2 (Homo sapiens (Human)) does CC(=O)N1CCN(c2ccc(N3CCC[C@@H](NC(=O)Nc4ccc(C(F)(F)F)cc4)C3=O)cc2)CC1 have?
Completion: 6.00 to 7.00

Prompt: Hello, I am looking for reported pEC50 with human FPR2 (Homo sapiens (Human)) for O=C(Nc1ccc(C(F)(F)F)cc1)N[C@@H]1CCCN(c2ccc(N3CC4(COC4)C3)cc2)C1=O . Could you help?
Completion: 7.00 to 8.00

Prompt: Given the entry O=C(Nc1ccc(C(F)(F)F)cc1)N[C@@H]1CCCN(c2ccc(N3CCOCC3)cc2F)C1=O , what pEC50 was observed with human FPR2 (Homo sapiens (Human))?
Completion: 7.00 to 8.00

Where these numbers come from: patent US11008301B2
